- System: HeLa Kyoto;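 further: HeLa Kyoto cells synchronized by double thymidine or nocodazole block, proteins quantified by TMT10plex mass spectrometry, three independent biological replicates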
- protocol-notes: melting temperature (median over replicates), in situ; higher = more thermally stable
- cond: cell cycle stage: mitosis
# melting temperature per record follows
Provide a numeric answer, followed by its unit.

Need melting temperature of MAILFAVVARGTTILAKHAWCGGNFLEVTEQILAKIPSENNKLTYSHGNYLFHYICQDRIVYLCITDDDFERSRAFNFLNEIKKRFQTTYGSRAQTALPYAMNSEFSSVLAAQLKHHSENKGLDKVMETQAQVDELKGIMVRNIDLVAQRGERLELLIDKTENLVDSSVTFKTTSRNLARAMCMKNLKLTIIIIIVSIVFIYIIVSPLCGGFTWPSCVKK [VAMP7] , thanks.
53.1 °C

Need melting temperature of MGRIFLDHIGGTRLFSCANCDTILTNRSELISTRFTGATGRAFLFNKVVNLQYSEVQDRVMLTGRHMVRDVSCKNCNSKLGWIYEFATEDSQRYKEGRVILERALVRESEGFEEHVPSDNS [YPEL5] , thanks.
52.5 °C
